measurement-target: UniProtKB P13569
Sequence (P13569 whole entry): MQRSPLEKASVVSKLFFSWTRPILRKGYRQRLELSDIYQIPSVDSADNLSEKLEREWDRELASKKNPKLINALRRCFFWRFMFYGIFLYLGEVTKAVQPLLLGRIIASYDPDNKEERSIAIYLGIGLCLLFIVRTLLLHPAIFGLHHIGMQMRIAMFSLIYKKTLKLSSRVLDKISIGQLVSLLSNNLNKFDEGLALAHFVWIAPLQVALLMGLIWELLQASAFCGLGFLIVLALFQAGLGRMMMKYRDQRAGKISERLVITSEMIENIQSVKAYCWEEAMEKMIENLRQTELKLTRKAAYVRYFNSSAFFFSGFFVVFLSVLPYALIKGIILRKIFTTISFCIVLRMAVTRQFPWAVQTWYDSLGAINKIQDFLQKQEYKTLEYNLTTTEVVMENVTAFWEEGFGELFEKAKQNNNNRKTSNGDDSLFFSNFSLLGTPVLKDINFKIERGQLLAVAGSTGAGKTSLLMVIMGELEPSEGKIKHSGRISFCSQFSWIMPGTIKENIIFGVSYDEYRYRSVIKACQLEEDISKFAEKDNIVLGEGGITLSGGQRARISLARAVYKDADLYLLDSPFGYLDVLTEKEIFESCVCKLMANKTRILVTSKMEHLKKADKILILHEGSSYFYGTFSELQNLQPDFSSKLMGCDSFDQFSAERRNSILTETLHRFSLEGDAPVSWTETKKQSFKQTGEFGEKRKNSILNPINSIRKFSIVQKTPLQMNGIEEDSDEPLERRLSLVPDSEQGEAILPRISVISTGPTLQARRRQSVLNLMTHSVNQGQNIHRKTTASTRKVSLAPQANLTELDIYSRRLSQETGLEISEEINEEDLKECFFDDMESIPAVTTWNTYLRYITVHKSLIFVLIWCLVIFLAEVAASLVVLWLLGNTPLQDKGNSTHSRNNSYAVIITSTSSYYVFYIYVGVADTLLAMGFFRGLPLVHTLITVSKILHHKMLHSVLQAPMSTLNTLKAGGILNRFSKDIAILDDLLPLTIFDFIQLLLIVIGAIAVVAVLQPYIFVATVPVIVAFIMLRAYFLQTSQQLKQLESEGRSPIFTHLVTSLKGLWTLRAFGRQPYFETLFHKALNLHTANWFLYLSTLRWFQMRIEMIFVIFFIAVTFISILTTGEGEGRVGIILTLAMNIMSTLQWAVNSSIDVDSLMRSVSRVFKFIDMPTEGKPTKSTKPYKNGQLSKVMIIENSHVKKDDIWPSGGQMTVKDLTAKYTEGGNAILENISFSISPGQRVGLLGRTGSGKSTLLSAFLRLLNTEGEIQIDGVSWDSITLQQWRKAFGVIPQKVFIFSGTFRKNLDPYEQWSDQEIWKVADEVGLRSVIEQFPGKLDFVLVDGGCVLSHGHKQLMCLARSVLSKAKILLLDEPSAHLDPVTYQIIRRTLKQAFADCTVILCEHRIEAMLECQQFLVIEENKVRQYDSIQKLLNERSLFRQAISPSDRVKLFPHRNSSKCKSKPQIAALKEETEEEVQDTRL
assay-comment: Cell-based YFP assay
Design: expressed in transfected cells; host or cells: CHO-K1 (Chinese hamster ovary)
measurement-parameters: CHO-K1 cells expressing human wild type-CFTR and YFP-H148Q/I152L; forskolin 20 μM = 100% activity; read-out: Cell-based YFP Assay (EC50) Concentration Range
Entries and their EC50 values follow.

compound	EC50
CCOc1ccc(C(=O)Nc2cc3nccc(-c4ccc(OC)c(OC)c4)n3n2)cc1 [Compound 287]	200 to 2000 nM
COC(=O)c1ccc(NC(=O)c2cc3nccc(-c4ccc(OC)c(OC)c4)n3n2)cc1C [Compound 191]	< 200 nM
COc1ccc(-c2ccnc3cc(C(=O)N4CCN[C@H](C)C4)nn23)cc1OC [Compound 322]	≥ 2000 nM
COc1ccc(-c2ccnc3cc(C(=O)Nc4ccc(N)cc4)nn23)cc1OC [Compound 257]	< 200 nM
COc1ccc(-c2ccnc3cc(C(=O)N4CCN(C(=O)c5ccco5)[C@@H](C)C4)nn23)cc1OC [Compound 353]	< 200 nM

### Prompt Reported EC50, compound COc1ccc(-c2ccnc3cc(C(=O)Nc4ccc(OC(=O)[C@@H](NC(=O)OCc5ccccc5)C(C)C)cc4)nn23)cc1OC [Compound 171] : ____
### Response < 200 nM

### Prompt Fill blank: measured EC50 of the compound COc1ccc(-c2ccnc3cc(C(=O)N[C@H]4CC[C@@H](C(=O)N5CCOCC5)CC4)nn23)cc1OC [Compound 72] is ____.
### Response 200 to 2000 nM

### Prompt Recorded EC50 for COc1ccc(-c2ccnc3cc(C(=O)O)nn23)cc1OC [Compound 5] , please?
### Response ≥ 2000 nM
